Please go through the items and note down their inhibition at 1 µg/mL.
- Species: Rattus norvegicus
- procedure-details: In vitro inhibitory effect on D-Galactosamine induced cytotoxicity in primary cultured rat hepatocytes at 1 ug/mL
- Type: functional
- condition-summary: Hepatocyte

molecule	inhibition at 1 µg/mL
CO[C@@H]1C=C2C3CC(C)(C)CC[C@]3(CO)[C@@H](O)C[C@@]2(C)[C@]2(C)CCC3[C@](C)(CCC(O[C@@H]4O[C@H](C)[C@H](O)[C@H](O[C@@H]5O[C@H](CO)[C@@H](O)[C@H](O)[C@H]5O)[C@H]4O)[C@@]3(C)CO)C12 (some centres not stated)	13.9%

Now consider the entry below.
For the molecule shown here, C[C@@H]1O[C@@H](O[C@@H]2[C@H](O)[C@@H](O)[C@H](OC3CC[C@@]4(C)C(CC[C@]5(C)[C@@H]4CC=C4C6CC(C)(C)CC[C@]6(CO)[C@@H](O)C[C@]45C)C3(C)C)O[C@@H]2CO[C@@H]2O[C@H](CO)[C@@H](O)[C@H](O)[C@H]2O)[C@H](O)[C@H](O)[C@H]1O (some centres not stated) , give the reported inhibition at 1 µg/mL. 0.2%

----------
- Species: Rattus norvegicus
- procedure-details: In vitro inhibitory effect on D-Galactosamine induced cytotoxicity in primary cultured rat hepatocytes at 3 ug/mL
- Type: functional
- condition-summary: Hepatocyte
Field: inhibition at 3 µg/mL. Provide a value for each of the molecules that follow.

// worked examples, inhibition at 3 µg/mL included
molecule	readout-kind	readout-value
CC1(C)CC[C@@]2(CO)C(C1)C1=CC(=O)C3[C@@]4(C)CC[C@H](O)[C@@](C)(CO)C4CC[C@@]3(C)[C@]1(C)C[C@@H]2O (some centres not stated)	inhibition at 3 µg/mL	0%
CO[C@@H]1C=C2C3CC(C)(C)CC[C@]3(CO)[C@@H](O)C[C@@]2(C)[C@]2(C)CCC3C(C)(C)[C@@H](O[C@@H]4O[C@H](C)[C@H](O)[C@H](O[C@@H]5O[C@H](CO)[C@@H](O)[C@H](O)[C@H]5O)[C@H]4O)CC[C@]3(C)C12 (some centres not stated)	inhibition at 3 µg/mL	75.5%
CC1(C)CC[C@]2(C(=O)O)CC[C@]3(C)C(=CCC4[C@@]5(C)CC[C@H](O[C@@H]6O[C@H](CO)[C@H](O)[C@H](O[C@@H]7OC[C@@H](O)[C@@H](O)[C@@H]7O[C@@H]7O[C@H](CO)[C@@H](O)[C@H](O)[C@H]7O)[C@H]6O)C(C)(C)C5CC[C@]43C)C2C1 (some centres not stated) [BUPLEUROSIDE VII1]	inhibition at 3 µg/mL	-0.9%
C[C@H]1O[C@@H](O[C@H]2CC[C@@]3(C)C(CC[C@]4(C)C3C=C[C@]35OC[C@@]6(CCC(C)(C)CC63)[C@@H](O)C[C@]54C)[C@]2(C)CO)[C@H](O)[C@@H](O[C@@H]2O[C@H](CO)[C@@H](O)[C@H](O)[C@H]2O[C@@H]2O[C@H](CO)[C@@H](O)[C@H](O)[C@H]2O)[C@H]1O (some centres not stated) [BUPLEUROSIDE I]	inhibition at 3 µg/mL	-7.8%

Batch request: inhibition at 3 µg/mL per item, same order as input.
1. CO[C@@H]1C=C2C3CC(C)(C)CC[C@]3(CO)[C@@H](O)C[C@@]2(C)[C@]2(C)CCC3[C@](C)(CCC(O[C@@H]4O[C@H](C)[C@H](O)[C@H](O[C@@H]5O[C@H](CO)[C@@H](O)[C@H](O)[C@H]5O)[C@H]4O)[C@@]3(C)CO)C12 (some centres not stated)
2. CO[C@@H]1C=C2C3CC(C)(C)CC[C@]3(CO)[C@H](O)C[C@@]2(C)[C@]2(C)CCC3[C@](C)(CC[C@H](O[C@@H]4O[C@H](C)[C@H](O)[C@H](O[C@@H]5O[C@H](CO)[C@@H](O)[C@H](O)[C@H]5O[C@@H]5O[C@H](CO)[C@@H](O)[C@H](O)[C@H]5O)[C@H]4O)[C@@]3(C)CO)C12 (some centres not stated)
3. C[C@@H]1O[C@@H](O[C@H]2[C@@H](O)[C@@H](CO[C@@H]3O[C@H](CO)[C@@H](O)[C@H](O)[C@H]3O)O[C@@H](OC3CC[C@@]4(C)C(CC[C@]5(C)C4C=CC4=C6C[C@@](C)(CO)CC[C@]6(CO)[C@H](O)C[C@]45C)[C@]3(C)CO)[C@@H]2O)[C@H](O)[C@H](O)[C@H]1O (some centres not stated) [BUPLEUROSIDE XII]

1: 56.4%; 2: -0.4%; 3: -0.8%

----------
Kindly supply the reported inhibition at 30 µg/mL values for the records listed here.
- Species on record: Rattus norvegicus
- procedure-details: In vitro inhibitory effect on D-Galactosamine induced cytotoxicity in primary cultured rat hepatocytes at 30 ug/mL
- Type: functional
- condition-summary: Hepatocyte
Give bare numbers, in %.

Some solved cases for reference:
compound	readout-kind	readout-value
C[C@@H]1O[C@@H](O[C@H]2[C@@H](O)[C@@H](CO[C@@H]3O[C@H](CO)[C@@H](O)[C@H](O)[C@H]3O)O[C@@H](OC3CC[C@@]4(C)C(CC[C@]5(C)C4C=CC4=C6CC(C)(C)CC[C@]6(CO)[C@H](O)C[C@]45C)[C@]3(C)CO)[C@@H]2O)[C@H](O)[C@H](O)[C@H]1O (some centres undefined) [BUPLEUROSIDE X]	inhibition at 30 µg/mL	2.7
C[C@H]1O[C@@H](O[C@H]2CC[C@@]3(C)C(CC[C@]4(C)C3C=C[C@]35OC[C@@]6(CCC(C)(C)CC63)[C@H](O)C[C@]54C)[C@]2(C)CO)[C@H](O)[C@@H](O[C@@H]2O[C@H](CO)[C@@H](O)[C@H](O)[C@H]2O)[C@H]1O (some centres undefined)	inhibition at 30 µg/mL	-5.3
CO[C@@H]1C=C2C3CC(C)(C)CC[C@]3(CO)[C@H](O)C[C@@]2(C)[C@]2(C)CCC3[C@](C)(CCC(O[C@@H]4O[C@H](C)[C@H](O)[C@H](O[C@@H]5O[C@H](CO)[C@@H](O)[C@H](O)[C@H]5O)[C@H]4O)[C@@]3(C)CO)C12 (some centres undefined)	inhibition at 30 µg/mL	-9.9

Query compound follows.
What inhibition at 30 µg/mL value was documented for this compound, C[C@H]1O[C@@H](OC2CC[C@@]3(C)C(CC[C@]4(C)C3C=CC3=C5C[C@](C)(C(=O)O)CC[C@]5(CO)[C@H](O)C[C@]34C)[C@]2(C)CO)[C@H](O)[C@@H](O[C@@H]2O[C@H](CO)[C@@H](O)[C@H](O)[C@H]2O)[C@H]1O (some centres undefined) [BUPLEUROSIDE V] ? 4.5

----------
Can you tell me inhibition at 3 µg/mL for the items I'm about to list?
- Species: Rattus norvegicus
- procedure-details: In vitro inhibitory effect on D-Galactosamine induced cytotoxicity in primary cultured rat hepatocytes at 3 ug/mL
- Assay type: functional
- condition-summary: Hepatocyte

compound	inhibition at 3 µg/mL
C[C@H]1O[C@@H](O[C@H]2CC[C@@]3(C)C(CC[C@]4(C)C3C=C[C@]35OC[C@@]6(CCC(C)(C)CC63)[C@H](O)C[C@]54C)[C@]2(C)CO)[C@H](O)[C@@H](O[C@@H]2O[C@H](CO)[C@@H](O)[C@H](O)[C@H]2O)[C@H]1O (some centres undefined)	-4.2%
C[C@@H]1O[C@@H](O[C@@H]2[C@H](O)[C@@H](O)[C@H](OC3CC[C@@]4(C)C(CC[C@]5(C)[C@@H]4[C@H](O)C=C4C6CC(C)(C)CC[C@]6(CO)[C@@H](O)C[C@]45C)C3(C)C)O[C@@H]2CO[C@@H]2O[C@H](CO)[C@@H](O)[C@H](O)[C@H]2O)[C@H](O)[C@H](O)[C@H]1O (some centres undefined)	-3.4%
C[C@H]1O[C@@H](O[C@H]2CC[C@@]3(C)C(CC[C@]4(C)C3[C@H](O)C=C3C5CC(C)(C)CC[C@]5(CO)[C@@H](O)C[C@]34C)[C@]2(C)CO)[C@H](O)[C@@H](O[C@@H]2O[C@H](CO)[C@@H](O)[C@H](O)[C@H]2O)[C@H]1O (some centres undefined)	35.6%

Next, consider the following compound.
Report inhibition at 3 µg/mL for CO[C@@H]1C=C2C3CC(C)(C)CC[C@]3(CO)[C@H](O)C[C@@]2(C)[C@]2(C)CCC3[C@](C)(CCC(O[C@@H]4O[C@H](C)[C@H](O)[C@H](O[C@@H]5O[C@H](CO)[C@@H](O)[C@H](O)[C@H]5O)[C@H]4O)[C@@]3(C)CO)C12 (some centres undefined) please. -6.9%
